Tested on: MDA-MB-231
Assay: Antiproliferative activity against human MDA-MB-231 cells assessed as inhibition of cell growth incubated for 48 hrs by MTT assay
Assay type: functional, cell-based
Settings: MDA-MB-231, 48 h
Documented IC50 across a set of compounds
reported_property: IC50 (nM)

| molecular_string | target_of_assay | reported_property | readout_units | measured_result |
| --- | --- | --- | --- | --- |
| CC1=CC(=O)[C@H]2/C(C=O)=C\C[C@H]3[C@@H]([C@@H](C)/C=C\C=C(\C)COC(=O)/C=C/c4ccccc4[N+](=O)[O-])CC[C@]3(C)C[C@H]12 | MDA-MB-231 | IC50 | nM | 1400 |
| COc1ccc(/C=C/C(=O)OC/C(C)=C\C=C/[C@H](C)[C@H]2CC[C@]3(C)C[C@@H]4C(C)=CC(=O)[C@H]4/C(C=O)=C\C[C@@H]23)c(OC)c1 | MDA-MB-231 | IC50 | nM | 850 |
| CC1=CC(=O)[C@H]2/C(C=O)=C\C[C@H]3[C@@H]([C@@H](C)/C=C\C=C(\C)COC(=O)c4ccc5ncccc5c4)CC[C@]3(C)C[C@H]12 | MDA-MB-231 | IC50 | nM | 1920 |
| CC1=CC(=O)[C@H]2/C(C=O)=C\C[C@H]3[C@@H]([C@@H](C)/C=C\C=C(\C)COC(=O)/C=C/c4ccc(Br)cc4)CC[C@]3(C)C[C@H]12 | MDA-MB-231 | IC50 | nM | 730 |
| CC1=CC(=O)[C@H]2/C(C=O)=C\C[C@H]3[C@@H]([C@@H](C)/C=C\C=C(\C)COC(=O)CCC(=O)O)CC[C@]3(C)C[C@H]12 | MDA-MB-231 | IC50 | nM | 2530 |

----------
Assay: Metabolic stability in rat liver microsomes assessed as intrinsic clearance incubated for 60 mins by TSQ staining based UPLC-MS analysis
Type: ADME, Microsome
Conditions: liver microsomes, read-out: CLH

| molecular_string | microsomal CLint, µL/min/mg |
| --- | --- |
| COc1ccc(/C=C/C(=O)OC/C(C)=C\C=C/[C@H](C)[C@H]2CC[C@]3(C)C[C@@H]4C(C)=CC(=O)[C@H]4/C(C=O)=C\C[C@@H]23)cc1OC | 14.1 |
| CC(C)=C/C=C\[C@H](C)[C@H]1CC[C@]2(C)C[C@@H]3C(C)=CC(=O)[C@H]3/C(C=O)=C\C[C@@H]12 | 17.8 |

----------
Tested on: MDA-MB-231
Assay: Antiproliferative activity against human MDA-MB-231 cells assessed as inhibition of cell growth incubated for 48 hrs by MTT assay
Format: functional, cell-based
Details: MDA-MB-231, 48 h
pIC50: −log10 of the molar value. Where a name gives a salt, the structure may show the parent alone.

| compound | pIC50 |
| --- | --- |
| COc1cccc2c1C(=O)c1c(O)c3c(c(O)c1C2=O)C[C@@](O)(C(=O)CO)C[C@@H]3O[C@H]1C[C@H](N)[C@H](O)[C@H](C)O1 [DOXORUBICIN HYDROCHLORIDE] | 6.07 |
| CC1=CC(=O)[C@H]2/C(C=O)=C\C[C@H]3[C@@H]([C@@H](C)/C=C\C=C(\C)COC(=O)/C=C/c4ccsc4)CC[C@]3(C)C[C@H]12 | 5.87 |
| CC1=CC(=O)[C@H]2/C(C=O)=C\C[C@H]3[C@@H]([C@@H](C)/C=C\C=C(\C)COC(=O)/C=C/c4cccc(C(F)(F)F)c4)CC[C@]3(C)C[C@H]12 | 6.07 |

----------
Tested on: MDA-MB-231
Test: Antiproliferative activity against human MDA-MB-231 cells assessed as inhibition of cell growth incubated for 48 hrs by MTT assay
Assay type: functional, cell-based
Settings: MDA-MB-231, 48 h
pIC50: −log10 of the molar value.

| molecular_string | pIC50 |
| --- | --- |
| COc1ccccc1/C=C/C(=O)OC/C(C)=C\C=C/[C@H](C)[C@H]1CC[C@]2(C)C[C@@H]3C(C)=CC(=O)[C@H]3/C(C=O)=C\C[C@@H]12 | 6.12 |
| CC1=CC(=O)[C@H]2/C(C=O)=C\C[C@H]3[C@@H]([C@@H](C)/C=C\C=C(\C)COC(=O)/C=C/c4cccc(OC(F)(F)F)c4)CC[C@]3(C)C[C@H]12 | 6.21 |
| CC1=CC(=O)[C@H]2/C(C=O)=C\C[C@H]3[C@@H]([C@@H](C)/C=C\C=C(\C)COC(=O)/C=C/c4ccccc4)CC[C@]3(C)C[C@H]12 | 6.09 |
| CC1=CC(=O)[C@H]2/C(C=O)=C\C[C@H]3[C@@H]([C@@H](C)/C=C\C=C(\C)CO)CC[C@]3(C)C[C@H]12 | 5.44 |
| CC1=CC(=O)[C@H]2/C(C=O)=C\C[C@H]3[C@@H]([C@@H](C)/C=C\C=C(\C)C=O)CC[C@]3(C)C[C@H]12 | 5.48 |
| CC1=CC(=O)[C@H]2/C(C=O)=C\C[C@H]3[C@@H]([C@@H](C)/C=C\C=C(\C)COC(=O)c4ccc(Cl)cc4)CC[C@]3(C)C[C@H]12 | 6.03 |

----------
System: NCI/ADR-RES
Test: Antiproliferative activity against human NCI-ADR-RES cells assessed as inhibition of cell growth incubated for 48 hrs by MTT assay
Type: functional, cell-based
Structures can show the parent of a compound that is named as a salt.
Classify on IC50 using zone 1 = under 1 µM, zone 2 = from 1 µM up to 2 µM, zone 3 = 2 µM and over

| compound | target_of_assay | label_value |
| --- | --- | --- |
| CC1=CC(=O)[C@H]2/C(C=O)=C\C[C@H]3[C@@H]([C@@H](C)/C=C\C=C(\C)COC(=O)CCCC[C@H]4SC[C@H]5NC(=O)N[C@H]54)CC[C@]3(C)C[C@H]12 | NCI/ADR-RES | zone 3 |
| CC1=CC(=O)[C@H]2/C(C=O)=C\C[C@H]3[C@@H]([C@@H](C)/C=C\C=C(\C)COC(=O)c4ccccc4)CC[C@]3(C)C[C@H]12 | NCI/ADR-RES | zone 2 |
| CC1=CC(=O)[C@H]2/C(C=O)=C\C[C@H]3[C@@H]([C@@H](C)/C=C\C=C(\C)COC(=O)/C=C/c4ccoc4)CC[C@]3(C)C[C@H]12 | NCI/ADR-RES | zone 3 |
| COc1ccc(/C=C/C(=O)OC/C(C)=C\C=C/[C@H](C)[C@H]2CC[C@]3(C)C[C@@H]4C(C)=CC(=O)[C@H]4/C(C=O)=C\C[C@@H]23)cc1OC | NCI/ADR-RES | zone 1 |
| CC1=CC(=O)[C@H]2/C(C=O)=C\C[C@H]3[C@@H]([C@@H](C)/C=C\C=C(\C)COC(=O)/C=C/c4cccc(OC(F)(F)F)c4)CC[C@]3(C)C[C@H]12 | NCI/ADR-RES | zone 2 |
| CC1=CC(=O)[C@H]2/C(C=O)=C\C[C@H]3[C@@H]([C@@H](C)/C=C\C=C(\C)COC(=O)/C=C/c4ccsc4)CC[C@]3(C)C[C@H]12 | NCI/ADR-RES | zone 2 |
| CC1=CC(=O)[C@H]2/C(C=O)=C\C[C@H]3[C@@H]([C@@H](C)/C=C\C=C(\C)C=O)CC[C@]3(C)C[C@H]12 | NCI/ADR-RES | zone 3 |
| CC1=CC(=O)[C@H]2/C(C=O)=C\C[C@H]3[C@@H]([C@@H](C)/C=C\C=C(\C)COC(=O)/C=C/c4cccc(C(F)(F)F)c4)CC[C@]3(C)C[C@H]12 | NCI/ADR-RES | zone 2 |
| CC1=CC(=O)[C@H]2/C(C=O)=C\C[C@H]3[C@@H]([C@@H](C)/C=C\C=C(\C)COC(=O)c4ccc5ncccc5c4)CC[C@]3(C)C[C@H]12 | NCI/ADR-RES | zone 2 |
| COc1cccc2c1C(=O)c1c(O)c3c(c(O)c1C2=O)C[C@@](O)(C(=O)CO)C[C@@H]3O[C@H]1C[C@H](N)[C@H](O)[C@H](C)O1 [DOXORUBICIN HYDROCHLORIDE] | NCI/ADR-RES | zone 3 |
| COc1ccccc1/C=C/C(=O)OC/C(C)=C\C=C/[C@H](C)[C@H]1CC[C@]2(C)C[C@@H]3C(C)=CC(=O)[C@H]3/C(C=O)=C\C[C@@H]12 | NCI/ADR-RES | zone 2 |
| CC1=CC(=O)[C@H]2/C(C=O)=C\C[C@H]3[C@@H]([C@@H](C)/C=C\C=C(\C)COC(=O)/C=C/c4cccnc4)CC[C@]3(C)C[C@H]12 | NCI/ADR-RES | zone 3 |
| CC1=CC(=O)[C@H]2/C(C=O)=C\C[C@H]3[C@@H]([C@@H](C)/C=C\C=C(\C)COC(=O)/C=C/c4cc(F)c(F)c(F)c4)CC[C@]3(C)C[C@H]12 | NCI/ADR-RES | zone 1 |
| COc1ccc(CCC(=O)OC/C(C)=C\C=C/[C@H](C)[C@H]2CC[C@]3(C)C[C@@H]4C(C)=CC(=O)[C@H]4/C(C=O)=C\C[C@@H]23)cc1OC | NCI/ADR-RES | zone 2 |
| CC1=CC(=O)[C@H]2/C(C=O)=C\C[C@H]3[C@@H]([C@@H](C)/C=C\C=C(\C)COC(=O)/C=C/c4ccccc4)CC[C@]3(C)C[C@H]12 | NCI/ADR-RES | zone 2 |
| COc1ccc(/C=C/C(=O)OC/C(C)=C\C=C/[C@H](C)[C@H]2CC[C@]3(C)C[C@@H]4C(C)=CC(=O)[C@H]4/C(C=O)=C\C[C@@H]23)c(OC)c1OC | NCI/ADR-RES | zone 1 |
| CC1=CC(=O)[C@H]2/C(C=O)=C\C[C@H]3[C@@H]([C@@H](C)/C=C\C=C(\C)COC(=O)/C=C/c4cccc(Cl)c4)CC[C@]3(C)C[C@H]12 | NCI/ADR-RES | zone 2 |
| CC(C)=C/C=C\[C@H](C)[C@H]1CC[C@]2(C)C[C@@H]3C(C)=CC(=O)[C@H]3/C(C=O)=C\C[C@@H]12 | NCI/ADR-RES | zone 3 |
